# assay-target: HLA-DR molecule encoded by the allele DRB1*1501 (human)
# assay-notes: competition ELISA vs biotinylated A3 152-166
pIC50: −log10 of the molar value.
Please use 1 whenever pIC50 is not below 6, and 0 whenever it is.

State whether the measured pIC50 reaches 6, counting equality as reaching it, for SSVVGWPTVRERMRR (modifications not checked) [Nef1.2 peptide (positions 8-22 of the HIV-1 Nef protein, Bru strain), P03406 8-22]
1

State whether the measured pIC50 reaches 6, counting equality as reaching it, for GKWSKSSVVGWPTVR (modifications not checked) [Nef1.1 peptide (positions 3-17 of the HIV-1 Nef protein, Bru strain), P03406 3-17]
1

State whether the measured pIC50 reaches 6, counting equality as reaching it, for EANKGENTSLLHPVSLHGMDDPEREVLEWRF (modifications not checked) [Nef11 peptide (positions 155-185 of the HIV-1 Nef protein, Bru strain), P03406 155-185]
1

State whether the measured pIC50 reaches 6, counting equality as reaching it, for MGGKWSKSSVVGWPTVRERMRRAEPAADGVGAASRD (modifications not checked) [Nef1 peptide (positions 1-36 of the HIV-1 Nef protein, Bru strain), P03406 1-36]
1

State whether the measured pIC50 reaches 6, counting equality as reaching it, for WIYHTQGYFPDWQNYT (modifications not checked) [Nef7 peptide (positions 113-128 of the HIV-1 Nef protein, Bru strain), P03406 113-128]
0

State whether the measured pIC50 reaches 6, counting equality as reaching it, for DPEREVLEWRFDSRLA (modifications not checked) [Nef12 peptide (positions 175-190 of the HIV-1 Nef protein, Bru strain), P03406 175-190]
1

State whether the measured pIC50 reaches 6, counting equality as reaching it, for LIHSQRRQDILDLWI (modifications not checked) [Nef6 peptide (positions 100-114 of the HIV-1 Nef protein, Bru strain), P03406 100-114]
0
